Items are presented alongside their recorded half-life.
Assay: Half life in rat plasma by HPLC analysis
Assay type: ADME, cell-free
METRIC: half-life (h)

SMILES REPR: CC[C@H](C)[C@H](NC(=O)CC(C)(C)C)C(=O)N1Cc2cc(OCC(=O)NO)ccc2C[C@H]1C(=O)Nc1ccc(N(C)C)cc1
UNIT INFO: h
NUMERIC RESULT: 10.5
--
SMILES REPR: CN(C)c1ccc(NC(=O)[C@@H]2Cc3ccc(OCC(=O)NO)cc3CN2C(=O)CNC(=O)CC(C)(C)C)cc1
UNIT INFO: h
NUMERIC RESULT: 1.13
--
SMILES REPR: CC[C@H](C)[C@H](NC(=O)CC(C)(C)C)C(=O)N1Cc2cc(OCC(=O)NO)ccc2C[C@H]1C(=O)Nc1ccc(OC)cc1
UNIT INFO: h
NUMERIC RESULT: 1.72
--
SMILES REPR: CC[C@H](C)[C@H](NC(=O)OC(C)(C)C)C(=O)N1Cc2cc(OCC(=O)NO)ccc2C[C@H]1C(=O)Nc1ccc(N(C)C)cc1
UNIT INFO: h
NUMERIC RESULT: 2.18
